Field: inhibition at 0.01 µM. Provide a value for each of the compounds that follow.
- TGT: farnesyltransferase (Rattus norvegicus, UniProt Q02293+Q04631)
- Construct: The enzyme can be purified according to Cell, 62: 81-88 (1990), utilizing steps one, two, and three; from tissue; host or cells: rat brain
- Sequence (Q02293 whole entry, one chain of several): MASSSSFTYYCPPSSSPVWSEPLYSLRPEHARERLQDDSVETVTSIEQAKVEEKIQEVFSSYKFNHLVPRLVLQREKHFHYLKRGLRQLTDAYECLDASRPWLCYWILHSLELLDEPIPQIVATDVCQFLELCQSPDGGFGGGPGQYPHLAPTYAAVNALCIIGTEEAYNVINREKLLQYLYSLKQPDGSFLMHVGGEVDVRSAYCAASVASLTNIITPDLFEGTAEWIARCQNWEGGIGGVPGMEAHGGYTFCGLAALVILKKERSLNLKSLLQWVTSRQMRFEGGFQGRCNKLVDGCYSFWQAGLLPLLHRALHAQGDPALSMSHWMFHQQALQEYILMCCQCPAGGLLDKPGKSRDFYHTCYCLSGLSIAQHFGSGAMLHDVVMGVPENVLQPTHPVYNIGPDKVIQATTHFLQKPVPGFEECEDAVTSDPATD
- PROCEDURE_SUMMARY: Inhibition of farnesyltransferase (3H-farnesyldiphosphate / H-Ras filter assay)
- Type: biochemical
- TEST_CONTEXT: test compound at 10^−8 M; 3H-farnesyldiphosphate 0.6 μM, H-Ras 5.0 μM, 37° C., 30 minutes
Give bare numbers, in %.

> print(dat)
                                   compound          assay.readout  unit  test.value
1  COc1cccc(-c2cc(C#N)ccc2OCC(O)(c2ccc(C#N)cc2)c2cncn2C)c1 (stereo not shown)  inhibition at 0.01 µM     %          98
2  N#Cc1ccc(C(O)(COc2ccc(C#N)cc2-c2ccc(OC(F)(F)F)cc2)c2cncs2)cc1 (stereo not shown)  inhibition at 0.01 µM     %          15
3  Cn1cncc1C(F)(COc1ccc(C#N)cc1-c1ccc(F)c(F)c1)c1ccc(C#N)cc1 (stereo not shown)  inhibition at 0.01 µM     %          93

Batch request: inhibition at 0.01 µM for each of the following compounds.
1. Cn1cncc1C(F)(COc1ccc(C#N)cc1-c1ccc(OC(F)(F)F)cc1)c1ccc(C#N)cc1 (stereo not shown)
2. CCCOc1ccc(-c2cc(C#N)ccc2COC(c2ccc(C#N)cc2)c2cncn2C)cn1 (stereo not shown)

Response:
1: 90; 2: 94

----------
- TGT: farnesyltransferase (Rattus norvegicus, UniProt Q02293+Q04631)
- Construct: The enzyme can be purified according to Cell, 62: 81-88 (1990), utilizing steps one, two, and three; from tissue; host or cells: rat brain
- PROCEDURE_SUMMARY: Inhibition of farnesyltransferase (3H-farnesyldiphosphate / H-Ras filter assay)
- Assay type: biochemical
- TEST_CONTEXT: test compound at 10^−7 M; 3H-farnesyldiphosphate 0.6 μM, H-Ras 5.0 μM, 37° C., 30 minutes
ASSAY_READOUT: inhibition at 0.1 µM

Example cases with answers are listed next.
> print(dat)
                                   compound         assay.readout  test.value
1  Cn1cncc1C(OCc1c[nH]c(=O)cc1-c1cccc(Cl)c1)c1ccc(C#N)cc1 (centres unmarked)  inhibition at 0.1 µM         89%
2  Cn1cncc1C(OCc1ccc(Cl)cc1-c1cccc2ccccc12)c1ccc(C#N)cc1 (centres unmarked)  inhibition at 0.1 µM         92%
3  Cn1cncc1C(OCc1ccc(Cl)cc1-c1cccc(N)c1)c1ccc(C#N)cc1 (centres unmarked)  inhibition at 0.1 µM         84%
4  Cn1cncc1C(OCc1c(-c2cccc(Cl)c2)cc(C#N)c(=O)n1C)c1ccc(C#N)c(Cl)c1 (centres unmarked)  inhibition at 0.1 µM        100%
5  Cc1ccc(S(=O)(=O)Nc2cc(C#N)ccc2COC(c2ccc(C#N)cc2)c2cncn2C)cc1 (centres unmarked)  inhibition at 0.1 µM        100%
6  Cn1cncc1C(OCc1ccc(Cl)cc1-c1ccc(Cl)c(Cl)c1)c1ccc(C#N)cc1 (centres unmarked)  inhibition at 0.1 µM       > 85%
7  Cn1cncc1C(OCc1c(-c2cccc(Cl)c2)cc(C#N)c(=O)n1C)c1ccc(C#N)c(F)c1 (centres unmarked)  inhibition at 0.1 µM        100%

# ---- query compound ----
Request: Give its inhibition at 0.1 µM value. Item: Cn1cncc1C(OCc1cnc(C#N)cc1-c1cccc(Cl)c1)c1ccc(C#N)cc1 (centres unmarked)
Response: > 83%

----------
- TGT: farnesyltransferase (Rattus norvegicus, UniProt Q02293+Q04631)
- Construct: The enzyme can be purified according to Cell, 62: 81-88 (1990), utilizing steps one, two, and three; from tissue; host or cells: rat brain
- PROCEDURE_SUMMARY: Inhibition of farnesyltransferase (3H-farnesyldiphosphate / H-Ras filter assay)
- Type: biochemical
- TEST_CONTEXT: test compound at 10^−7 M; 3H-farnesyldiphosphate 0.6 μM, H-Ras 5.0 μM, 37° C., 30 minutes
Please go through the items and note down their inhibition at 0.1 µM.
One number for each entry, in %.

> print(dat)
                                   compound  unit  test.value
1  Cc1ccccc1-c1cc(Cl)ccc1COC(c1ccc(C#N)cc1)c1cncn1C (centres unmarked) [Example 4]     %          89
2  CC(=O)Nc1cccc(-c2cc(Cl)ccc2COC(c2ccc(C#N)cc2)c2cncn2C)c1 (centres unmarked) [Example 22]     %          64
3  Cn1cncc1C(OCc1ccc(Cl)cc1-c1ccc(Cl)cc1)c1ccc(C#N)cc1 (centres unmarked) [Example 11]     %          92
4  Cn1cncc1C(OCc1ccc(Cl)cc1-c1ccc(C(C)(C)C)cc1)c1ccc(C#N)cc1 (centres unmarked) [Example 18]     %          97
5  CC(=O)c1ccccc1-c1cc(Cl)ccc1COC(c1ccc(C#N)cc1)c1cncn1C (centres unmarked) [Example 15]     %          82

Would you mind listing inhibition at 0.1 µM for each of the following compounds?
1. Cn1cncc1C(OCc1ccc(Cl)cc1-c1cccc(C#N)c1)c1ccc(C#N)cc1 (centres unmarked) [Example 14]
2. Cn1cncc1C(OCc1ccc(Cl)nc1-c1cccc(Cl)c1)c1ccc(C#N)cc1 (centres unmarked) [Example 35]
3. Cn1cncc1C(OCc1ccc(C#N)cc1NS(=O)(=O)c1cccs1)c1ccc(C#N)cc1 (centres unmarked) [Example 46]
4. Cc1ccc(COC(c2ccc(C#N)cc2)c2cncn2C)c(-c2cccc(Cl)c2)n1 (centres unmarked) [Example 36]
5. COc1ccccc1-c1cc(Cl)ccc1COC(c1ccc(C#N)cc1)c1cncn1C (centres unmarked) [Example 5]
6. Cn1cncc1C(OCc1ccc(Cl)cc1-c1cccc(C(F)(F)F)c1)c1ccc(C#N)cc1 (centres unmarked) [Example 8]

Response:
96
96
100
70
79
96

----------
Kindly supply the reported inhibition at 0.01 µM values for the records listed here.
- TGT: farnesyltransferase (Rattus norvegicus, UniProt Q02293+Q04631)
- Construct: The enzyme can be purified according to Cell, 62: 81-88 (1990), utilizing steps one, two, and three; from tissue; host or cells: rat brain
- PROCEDURE_SUMMARY: Inhibition of farnesyltransferase (3H-farnesyldiphosphate / H-Ras filter assay)
- Assay type: biochemical
- TEST_CONTEXT: test compound at 10^−8 M; 3H-farnesyldiphosphate 0.6 μM, H-Ras 5.0 μM, 37° C., 30 minutes

> print(dat)
                                   compound  test.value
1  COc1cccc(-c2cc(C#N)ccc2N(C)CC(F)(c2ccc(C#N)cc2)c2cncn2C)c1 (stereo not shown)         65%
2  Cn1cncc1C(F)(COc1ccc(C#N)cc1-c1ccc(F)c(Cl)c1)c1ccc(C#N)cc1 (stereo not shown)         93%

# return inhibition at 0.01 µM for each item in the list
1. Cn1cncc1C(O)(COc1ccc(C#N)cc1-c1ccc(Cl)c(Cl)c1)c1ccc(C#N)cc1 (stereo not shown)
2. Cn1cncc1C(O)(COc1ccc(C#N)cc1-c1cccc(Cl)c1)c1ccc(C#N)cc1 (stereo not shown)

Response:
97%
98%

----------
- TGT: farnesyltransferase (Rattus norvegicus, UniProt Q02293+Q04631)
- Construct: The enzyme can be purified according to Cell, 62: 81-88 (1990), utilizing steps one, two, and three; from tissue; host or cells: rat brain
- PROCEDURE_SUMMARY: Inhibition of farnesyltransferase (3H-farnesyldiphosphate / H-Ras filter assay)
- Assay type: biochemical
- TEST_CONTEXT: test compound at 10^−7 M; 3H-farnesyldiphosphate 0.6 μM, H-Ras 5.0 μM, 37° C., 30 minutes
- Protocol: The ability of the compounds of the present invention to inhibit farnesyltransferase can be measured according to the method described in J. Biol. Chem., 266: 14603 (1991) or J. Biol. Chem., 270:660-664 (1995). […] Inhibition of rat brain farnesyltransferase can also be measured in vitro using an Amersham Life Science commercial scintillation proximity assay kit and substituting a biotin-K Ras B fragment (0.1 μM final concentration) for the biotin-lamin substrate provided by Amersham. […]
I'd appreciate it if you could supply inhibition at 0.1 µM values for the items below.

Worked cases, inhibition at 0.1 µM given:
> print(dat)
                                   compound                                       tgt  test.value
1  Cn1cncc1C(OCc1ccc(Cl)cc1-c1cc(Cl)cc(Cl)c1)c1ccc(C#N)cc1 (stereo not shown)  farnesyltransferase (Rattus norvegicus, UniProt Q02293+Q04631)         47%
2  Cn1cncc1C(OCc1ccc(C#N)cc1-c1cccc(Cl)c1)c1ccc(C#N)cc1 (stereo not shown)  farnesyltransferase (Rattus norvegicus, UniProt Q02293+Q04631)       > 97%
3  Cn1cncc1C(OCc1ccc(Cl)cc1-c1ccc2c(c1)OCO2)c1ccc(C#N)cc1 (stereo not shown)  farnesyltransferase (Rattus norvegicus, UniProt Q02293+Q04631)       > 92%

Moving on to the next compound.
Request: Which inhibition at 0.1 µM is listed for Cc1cccc(-c2cc(Cl)ccc2COC(c2ccc(C#N)cc2)c2cncn2C)c1 (stereo not shown) ?
Response: > 85%
